Measured IC50, listed per entry for reference.
Molecular target: UniProtKB Q9NR96
Sequence (Q9NR96 26-1032): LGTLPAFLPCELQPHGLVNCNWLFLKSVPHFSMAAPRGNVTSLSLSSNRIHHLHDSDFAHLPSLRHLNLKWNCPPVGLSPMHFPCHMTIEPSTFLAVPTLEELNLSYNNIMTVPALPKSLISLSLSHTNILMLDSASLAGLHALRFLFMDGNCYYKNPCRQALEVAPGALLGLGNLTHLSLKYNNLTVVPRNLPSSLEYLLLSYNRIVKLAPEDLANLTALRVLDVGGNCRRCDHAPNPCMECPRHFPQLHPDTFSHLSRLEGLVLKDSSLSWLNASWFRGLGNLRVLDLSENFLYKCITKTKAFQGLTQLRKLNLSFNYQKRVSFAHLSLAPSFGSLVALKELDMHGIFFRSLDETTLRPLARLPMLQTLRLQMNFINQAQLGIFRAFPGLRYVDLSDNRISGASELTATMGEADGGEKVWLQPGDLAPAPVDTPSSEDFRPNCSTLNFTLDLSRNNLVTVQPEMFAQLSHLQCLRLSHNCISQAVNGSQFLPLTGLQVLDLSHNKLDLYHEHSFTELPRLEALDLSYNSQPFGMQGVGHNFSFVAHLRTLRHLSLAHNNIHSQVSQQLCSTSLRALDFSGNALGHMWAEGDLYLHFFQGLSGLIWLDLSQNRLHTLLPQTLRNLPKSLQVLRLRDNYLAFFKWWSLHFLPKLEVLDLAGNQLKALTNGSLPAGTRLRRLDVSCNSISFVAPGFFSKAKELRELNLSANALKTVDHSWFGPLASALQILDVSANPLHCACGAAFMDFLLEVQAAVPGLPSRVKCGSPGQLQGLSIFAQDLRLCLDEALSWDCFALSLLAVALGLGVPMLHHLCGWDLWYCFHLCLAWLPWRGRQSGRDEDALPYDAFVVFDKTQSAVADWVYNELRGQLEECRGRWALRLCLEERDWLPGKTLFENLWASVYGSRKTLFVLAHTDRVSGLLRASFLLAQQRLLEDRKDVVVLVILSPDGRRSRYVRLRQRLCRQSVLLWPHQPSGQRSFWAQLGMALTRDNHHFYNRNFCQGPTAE
Assay: TLR9 inhibition reporter assay (HEK-Blue cells, SEAP reporter)
Details: HEK-Blue cells overexpressing human TLR9, stimulated with ODN2006 5 nM, 22 hour incubation
Give the value in nM but do not write nM after it.

                               smiles_entry  value_reported
0  Cc1nc(-c2ccc([C@@]3(O)CCN(C(C)C)C(C)(C)C3)c(F)c2)cc2c1cc(-c1ccc(S(C)(=O)=O)cc1)n2C              52
1  Cc1nc(-c2ccc(CN3CCN(CC(C)(C)O)CC3)cc2)cc2c1cc(-c1ccc(S(C)(=O)=O)cc1)n2C              96
2  Cc1nc(-c2ccc(N3CC4CCC(C3)N4CCCO)c(F)c2)cc2c1cc(-c1ccc(S(C)(=O)=O)cc1)n2C             126

Exercise: For UniProtKB Q9NR96, provide IC50 of Cc1nc(-c2ccc(N3CCN(C4COC4)CC3)cc2)cc2c1cc(-c1ccc(S(=O)(=O)N(C)C)cc1)n2C please.
Solution: 2410

Exercise: Param item: COc1ccc(-c2cc3cnc(-c4ccc(N5CCN(C6CCC6)CC5)cc4)cc3n2C)cc1OC
Solution: 66

Exercise: Param item: Cc1nc(-c2ccc(N3CCN(Cc4ccc(I)cc4)CC3)cc2)cc2c1cc(-c1ccc(S(C)(=O)=O)cc1)n2C
Solution: 87

---

Target: human TLR8 (Homo sapiens, UniProt Q9NR97)
Assay: TLR8 inhibition reporter assay (HEK-Blue cells, SEAP reporter)
Details: HEK-Blue cells overexpressing human TLR8, stimulated with R848 15.9 μM, 22 hour incubation
Measured IC50, listed per entry for reference.

                                   molecule  metric  value_reported
0  Cc1nc(-c2ccc(N3CCN(C4CCOCC4)CC3)cc2)cc2c1cc(-c1ccc(S(C)(=O)=O)cc1)n2C    IC50         > 25 µM
1  Cc1nc(-c2ccc(N3CCN(CC(C)C)CC3)cc2)cc2c1cc(-c1ccc(S(C)(=O)=O)cc1)n2C    IC50         > 50 µM
2  COc1ccc(-c2c(C)[nH]c3cnc(C4CCN(C(=O)C5CCN(C6CC6)CC5)CC4)cc23)cc1OC    IC50         > 50 µM
3  Cc1nc(-c2ccc(N3CCN(CCCO)CC3)cc2)cc2c1cc(-c1ccc(S(=O)(=O)C3CC3)cc1)n2C    IC50         > 25 µM
4  COc1ccc(-c2c(C)n(C)c3cnc(C4CCN(C5CCN(C(=O)C(C)C)CC5)CC4)cc23)cc1OC    IC50         > 50 µM

Exercise: # input molecule: Cc1nc(-c2ccc(C3(O)CCN(C4CC4)CC3)c(F)c2)cc2c1cc(-c1ccc(S(C)(=O)=O)cc1)n2C ; wanted: its IC50
Solution: > 50 µM

Exercise: Param item: Cc1nc(-c2ccc(N3CCN(C4CCOC4)CC3)cc2)cc2c1cc(-c1ccc(S(C)(=O)=O)cc1)n2C (stereo not drawn)
Solution: > 25 µM

Exercise: Param item: CC(C)N1CCN(c2ccc(-c3cc4c(cn3)cc(-c3ccc(S(C)(=O)=O)cc3)n4C)cc2)CC1
Solution: > 50 µM

Exercise: Param item: CC(C)(O)CN1C2CCC1CN(Cc1ccc(-c3cc4c(cn3)cc(-c3ccc(S(C)(=O)=O)cc3)n4C3CC3)cc1)C2
Solution: > 50 µM

Exercise: Param item: Cc1nc(-c2cc(F)c(N3CCN4CCCC4C3)c(F)c2)cc2c1cc(-c1ccc(S(C)(=O)=O)cc1)n2C (stereo not drawn)
Solution: > 50 µM

Exercise: Param item: COc1ccc(-c2cc3cnc(-c4ccc(N5CCN(C6CCC6)CC5)cc4)cc3n2C)cc1OC
Solution: 5.2 µM

Exercise: Param item: Cc1nc(-c2ccc(C3(O)CCN(CC(C)C)CC3)c(F)c2)cc2c1cc(-c1ccc(S(C)(=O)=O)cc1)n2C
Solution: 22.1 µM

Exercise: Param item: COc1ccc(-c2cc3cnc(-c4ccc(N5CCN(C)CC5)cc4)cc3n2C)cc1OC
Solution: 1.5 µM

Exercise: Param item: Cc1nc(-c2ccc(N3CC4CCC(C3)N4CCCO)c(F)c2)cc2c1cc(-c1ccc(S(C)(=O)=O)cc1)n2C
Solution: 19.2 µM

---

Measured IC50, listed per entry for reference.
Target: human TLR8 (Homo sapiens, UniProt Q9NR97)
Assay: TLR8 inhibition reporter assay (HEK-Blue cells, SEAP reporter)
Settings: HEK-Blue cells overexpressing human TLR8, stimulated with R848 15.9 μM, 22 hour incubation

Please review the following examples before continuing.
                               smiles_entry  value_reported
0  COc1ccc(-c2c(C)n(C)c3cnc(-c4ccc(N5CCN(C(C)C)CC5)cc4)cc23)cc1OC         > 50 µM
1  COc1ccc(-c2c(C)n(C)c3cnc(-c4ccc(N5CCN(CCC(C)(C)O)CC5)cc4)cc23)cc1OC         > 50 µM

Exercise: For human TLR8 (Homo sapiens, UniProt Q9NR97), provide IC50 of COc1ccc(-c2c(C)[nH]c3cnc(C4CCN(C5CCN(C(=O)C(C)C)CC5)CC4)cc23)cc1OC please.
Solution: > 50 µM

---

Molecular target: human TLR8 (Homo sapiens, UniProt Q9NR97)
Sequence (Q9NR97 27-1041): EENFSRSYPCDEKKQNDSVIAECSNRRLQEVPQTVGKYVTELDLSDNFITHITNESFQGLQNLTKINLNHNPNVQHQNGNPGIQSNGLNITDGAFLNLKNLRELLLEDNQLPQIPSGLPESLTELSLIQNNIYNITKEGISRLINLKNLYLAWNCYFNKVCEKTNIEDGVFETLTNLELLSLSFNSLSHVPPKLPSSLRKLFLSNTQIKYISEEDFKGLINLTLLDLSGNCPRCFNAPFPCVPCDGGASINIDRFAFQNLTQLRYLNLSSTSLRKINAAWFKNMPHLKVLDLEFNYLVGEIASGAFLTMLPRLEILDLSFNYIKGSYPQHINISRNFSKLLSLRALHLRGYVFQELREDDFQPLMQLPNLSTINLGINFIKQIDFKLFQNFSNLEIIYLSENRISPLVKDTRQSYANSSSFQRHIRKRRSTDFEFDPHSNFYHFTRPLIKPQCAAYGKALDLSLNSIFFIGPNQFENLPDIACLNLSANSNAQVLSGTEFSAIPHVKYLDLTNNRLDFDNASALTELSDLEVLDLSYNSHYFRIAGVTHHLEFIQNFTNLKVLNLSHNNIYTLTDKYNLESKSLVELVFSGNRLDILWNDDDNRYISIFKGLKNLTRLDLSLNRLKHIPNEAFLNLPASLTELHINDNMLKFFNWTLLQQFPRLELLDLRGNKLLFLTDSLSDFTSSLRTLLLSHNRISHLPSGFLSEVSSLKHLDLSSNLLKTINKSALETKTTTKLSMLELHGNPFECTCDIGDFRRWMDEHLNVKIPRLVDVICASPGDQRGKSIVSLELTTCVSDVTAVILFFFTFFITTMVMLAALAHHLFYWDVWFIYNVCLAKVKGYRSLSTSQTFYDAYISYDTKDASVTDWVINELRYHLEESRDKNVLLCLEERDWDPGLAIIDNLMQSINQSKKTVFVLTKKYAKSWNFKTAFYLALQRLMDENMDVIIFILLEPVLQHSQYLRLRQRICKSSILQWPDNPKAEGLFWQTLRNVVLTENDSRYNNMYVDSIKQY
Assay: TLR8 inhibition reporter assay (HEK-Blue cells, SEAP reporter)
Conditions: HEK-Blue cells overexpressing human TLR8, stimulated with R848 15.9 μM, 22 hour incubation
From the text: TLR7/8/9 Inhibition Reporter Assays HEK-Blue™-cells (Invivogen) overexpressing human TLR7, TLR8 or TLR9 receptors were used for screening inhibitors of these receptors using an inducible SEAP (secreted embryonic alkaline phosphatase) reporter gene under the control of the IFN-β minimal promoter fused to five NF-κB and AP-1-binding sites. […]
METRIC: IC50

>>> df
                               smiles_entry  metric  value_reported
0  COc1ccc(-c2c(C)[nH]c3cnc(C4CCN(C(=O)CN5CCCC5)CC4)cc23)cc1OC    IC50         > 50 µM
1  COCCN1CCC(O)(c2ccc(-c3cc4c(cc(-c5ccc(S(C)(=O)=O)cc5)n4C)c(C)n3)cc2F)CC1    IC50         > 50 µM
2  Cc1nc(-c2cc(F)c(N3CCN(C4CCOCC4)CC3)c(F)c2)cc2c1cc(-c1ccc(S(C)(=O)=O)cc1)n2C    IC50         > 50 µM

Exercise: For human TLR8 (Homo sapiens, UniProt Q9NR97), provide IC50 of COCCN1CCN(c2ccc(-c3cc4c(cc(-c5ccc(S(=O)(=O)C6CC6)cc5)n4C)c(C)n3)cc2)CC1 please.
Solution: > 25 µM

Each recorded value in this set is attributed to patent US12590091B2.
